Biological target: rP2X2 Lys69Arg (Rattus norvegicus, UniProt P49653, K69R)
Sequence (P49653 whole entry K69R): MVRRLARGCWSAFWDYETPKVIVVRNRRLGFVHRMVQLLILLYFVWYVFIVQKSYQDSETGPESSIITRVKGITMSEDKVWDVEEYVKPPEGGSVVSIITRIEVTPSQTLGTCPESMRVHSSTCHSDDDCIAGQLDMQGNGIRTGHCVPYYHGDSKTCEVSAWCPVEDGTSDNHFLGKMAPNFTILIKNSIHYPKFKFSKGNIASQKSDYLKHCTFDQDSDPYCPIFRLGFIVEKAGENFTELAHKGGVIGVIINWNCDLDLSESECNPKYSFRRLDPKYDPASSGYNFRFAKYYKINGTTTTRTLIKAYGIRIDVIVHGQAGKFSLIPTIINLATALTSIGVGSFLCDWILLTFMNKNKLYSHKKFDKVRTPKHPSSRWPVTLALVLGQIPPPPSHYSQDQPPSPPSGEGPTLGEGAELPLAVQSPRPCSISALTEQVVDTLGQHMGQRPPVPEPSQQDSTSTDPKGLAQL
Assay: Two-electrode voltage clamp, oocytes expressing rP2X2 Lys69Arg
Assay type: cell-based
Settings: mean ± SEM
pEC50: −log10 of the molar value.
assay.endpoint: pEC50

compound="Nc1ncnc2c1ncn2[C@@H]1O[C@H](COP(=O)(O)OP(=O)(O)OP(=O)(O)O)[C@@H](O)[C@H]1O [ATP, Adenosine 5′-triphosphate]" measured=2.22

----------
Molecular target: rat P2X2 receptor (rP2X2R) WT (Rattus norvegicus)
Sequence (P49653 whole entry): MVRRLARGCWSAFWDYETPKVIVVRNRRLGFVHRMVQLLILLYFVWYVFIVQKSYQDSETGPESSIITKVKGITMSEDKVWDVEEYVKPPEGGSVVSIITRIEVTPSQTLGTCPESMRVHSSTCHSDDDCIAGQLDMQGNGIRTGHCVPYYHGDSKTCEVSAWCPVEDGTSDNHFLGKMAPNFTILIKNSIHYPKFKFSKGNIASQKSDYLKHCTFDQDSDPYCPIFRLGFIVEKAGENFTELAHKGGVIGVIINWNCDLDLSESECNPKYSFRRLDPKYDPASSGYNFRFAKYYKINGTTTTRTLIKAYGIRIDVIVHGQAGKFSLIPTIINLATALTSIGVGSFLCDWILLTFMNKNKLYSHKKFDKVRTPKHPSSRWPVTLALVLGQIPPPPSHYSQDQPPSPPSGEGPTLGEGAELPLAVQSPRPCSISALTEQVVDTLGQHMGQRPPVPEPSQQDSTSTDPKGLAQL
Type: cell-based
Conditions: WT rP2X2R; maximal current compared to that elicited by 1 mM of ATP, same cell
# key: entry, value: Imax agonist/Imax ATP (%)
assay.endpoint: Imax agonist/Imax ATP (%)

compound="Nc1ccn([C@@H]2O[C@H](COP(=O)(O)OP(=O)(O)OP(=O)(O)O)[C@@H](O)[C@H]2O)c(=O)n1 [CTP, Cytidine 5′-triphosphate]" measured="105 ± 4%"
compound="Nc1ncnc2c1ncn2[C@@H]1O[C@H](COP(=O)(O)OP(=O)(O)OP(=O)(O)O)C[C@H]1O [C3′-dATP, 3′-deoxyadenosine-5′-triphosphate]" measured="67 ± 2%"
compound="Nc1ncnc2c1ncn2[C@@H]1O[C@@]2(COP(=O)(O)OP(=O)(O)OP(=O)(O)O)CO[C@@H]1[C@@H]2O [LNA-ATP, locked nucleic acid–ATP]" measured="66 ± 1%"
compound="Nc1ncnc2c1ncn2[C@@H]1O[C@H](COP(=O)(O)OP(=O)(O)OP(=O)(O)O)[C@@H](O)[C@H]1F [C2′-F-dATP]" measured="60 ± 2%"
